Experiment: Protein binding
Type: in vitro ADME
Measured property: fraction unbound

QUERY: Please look up its fraction unbound: `O=C(CN1CCOCC1)Nc1cccc(-c2nc(-c3c[nH]c(C(=O)N4CCCC4)c3)cs2)c1`
RESULT: 0.02

====

Assay: Mouse PK (PO)
Conditions: in vivo, read-out: Mouse PK (PO) T½ (converted)
Measured property: half-life (h)
Give bare numbers, in h.

QUERY: For the compound `O=C(CN1CCOCC1)Nc1cccc(-c2nc(-c3c[nH]c(C(=O)N4CCCC4)c3)cs2)c1` , what half-life is on record?
RESULT: 3.2

====

Tested on: JAK2 pathway, TF-1 cells
Test: JAK2/STAT5-irf1-bla TF1 screen
Details: Homo sapiens, read-out: IC50 Cell-based selectivity: JAK2 pathway TF-1 cells
Measured property: pIC50
One number for each entry, as −log10 of the molar value.

QUERY: May I ask what pIC50 has been recorded for `O=C(CN1CCOCC1)Nc1cccc(-c2nc(-c3c[nH]c(C(=O)N4CCCC4)c3)cs2)c1` ?
RESULT: 4.31
